Papp B→A for assorted compounds
- MEASUREMENT PROTOCOL: Apparent permeability from basolateral to apical side in human Caco2 cells
- Type: ADME, cell-based
- CONDITION DETAILS: Caco-2
Answer format: numeric, ×10⁻⁶ cm/s implied, no suffix.

Worked cases, answers included:
1) CC(=O)Nc1nc2ccc(-c3ccc(N)nc3)cc2s1
42
2) CC(=O)Nc1cn2cc(-c3cnc(N)c(C(F)(F)F)c3)ccc2n1
40
3) COc1cc(-c2ccc3nc(NC(C)=O)sc3c2)cnc1N
18

Suppose we examine the compound CC(=O)Nc1nc2ccc(-c3cnc(N)c(C(F)(F)F)c3)cc2s1 ; what Papp B→A value has been reported?
13
